Listing of recorded TGI by entry.
System: SF-295 CNS
Test: NCI tumour cell line growth inhibition, 48 h

COMPOUND | COMPARATIVE_SIGN | TGI (µM)
COC(=O)c1c2c(cc3c1CC1(Cc4cc5c(c(C=O)c4C1)CCCC5)C3)CCCC2 (stereo not given) | > | 100
Cn1cc(-c2ccc3c(Nc4cccc(NC(=O)Nc5cccc(F)c5)c4)ncnc3c2)cn1 | = | 8.42
C/C(CN1C(=O)c2ccccc2C1=O)=N\NS(=O)(=O)c1ccc(C)cc1 | > | 100
O=C1C(Cl)=C(Nc2cccc(Cl)c2)C(=O)N1Cc1ccccc1 | = | 20.1
COc1cc(C(=O)/C=C/c2c(C)n([O-])c3ccc(C)cc3[n+]2=O)cc(OC)c1OC | > | 68

====

Listing of recorded TGI by entry.
System: NCI-H226 lung
Experiment: NCI tumour cell line growth inhibition, 48 h

COMPOUND | SYSTEM_TESTED | COMPARATIVE_SIGN | TGI [µM]
CC(=O)NCCc1c2c(c3nccc4c3c1Nc1ccccc1-4)OCS2 | NCI-H226 lung | = | 26.5
Cc1ccc(-c2nc(C)c(C(=O)Nc3ccc(Cl)cc3)s2)cc1 | NCI-H226 lung | = | 48.5
Clc1ncnc(Cl)c1Cl | NCI-H226 lung | > | 100
CCCCCCCCCCCCNC(C)=O | NCI-H226 lung | = | 35.9
CS(=O)(=O)c1ccc(/C=N/NC(N)=S)cc1 | NCI-H226 lung | > | 100
COc1cc2c(cc1OC)-c1cc3ccccc3c[n+]1CC2 | NCI-H226 lung | > | 100
O=C1OC[C@@H]2[C@@H](O)CCCCCN12 | NCI-H226 lung | > | 100
O=C(Nc1nnc(-c2ccccc2)o1)C(SC(=S)N1CCCCC1)c1ccccc1 (stereo not drawn) | NCI-H226 lung | = | 93.5
CCC1=NC(N/N=C/c2ccco2)=N/C1=C\c1ccccc1O | NCI-H226 lung | > | 100
Nc1ncnc2c1ncn2C1OC(COP(=O)(O)O)C(O)C1O (stereo not drawn) | NCI-H226 lung | > | 50
N#CN=C(N)c1sc2nc3c(c(-c4ccc(Br)cc4)c2c1N)CCCC3 | NCI-H226 lung | = | 42
CC1(C)N=C(N)N=C(N)N1c1cccc(CCCCc2cccc(S(=O)(=O)F)c2)c1 | NCI-H226 lung | > | 100
COC(=O)CCC(=O)C(=O)OC | NCI-H226 lung | = | 65100
O=C1C(Cl)=C(Nc2cccc(Cl)c2)C(=O)N1Cc1ccccc1 | NCI-H226 lung | = | 29.3
COc1ccc(C2CC(c3cc(OC)c(OC)c(OC)c3)=NO2)cc1OCCCCOc1cc2c(cc1OC)C(=O)N1CCC[C@H]1C=N2 (stereo partly drawn) | NCI-H226 lung | = | 3.44
O=C(CN1CCN(Cc2ccccc2)CC1)c1ccc2[nH]c(=O)oc2c1 | NCI-H226 lung | > | 100
O=c1sc2c(s1)SSSSS2 | NCI-H226 lung | > | 50
CCS(=O)(=O)N1CCC(C(C)n2c(C)c(C(=O)NCc3c(OC)cc(C)[nH]c3=O)c3ccccc32)CC1 (stereo not drawn) | NCI-H226 lung | > | 100
ClCCCN(CCCCl)c1ccc(C=Nc2cccc(Cl)c2)cc1 | NCI-H226 lung | = | 8.67
CC(=O)Nc1ccc(Nc2cc(=O)[nH]c(=O)[nH]2)cc1 | NCI-H226 lung | > | 100
NCCNc1c2c(c(NCCN)c3c(CO)c[nH]c13)C(=O)c1ccccc1C2=O | NCI-H226 lung | = | 91.6
CCC(C#N)(c1ccccc1)N(CCc1ccccc1)C(=O)c1ccccc1 (stereo not drawn) | NCI-H226 lung | = | 39.7
COc1cc2c(cc1O)CC[C@@H]1[C@@H]2CC[C@]2(C)[C@@H](NCCN(C)C)CC[C@@H]12 | NCI-H226 lung | = | 1.59
